molecular target: UniProtKB P21451; assay: Inhibition of SRTX-6c stimulated arachidonic acid release in CHO cells expressing rat ET- B receptors
Sequence (P21451 whole entry): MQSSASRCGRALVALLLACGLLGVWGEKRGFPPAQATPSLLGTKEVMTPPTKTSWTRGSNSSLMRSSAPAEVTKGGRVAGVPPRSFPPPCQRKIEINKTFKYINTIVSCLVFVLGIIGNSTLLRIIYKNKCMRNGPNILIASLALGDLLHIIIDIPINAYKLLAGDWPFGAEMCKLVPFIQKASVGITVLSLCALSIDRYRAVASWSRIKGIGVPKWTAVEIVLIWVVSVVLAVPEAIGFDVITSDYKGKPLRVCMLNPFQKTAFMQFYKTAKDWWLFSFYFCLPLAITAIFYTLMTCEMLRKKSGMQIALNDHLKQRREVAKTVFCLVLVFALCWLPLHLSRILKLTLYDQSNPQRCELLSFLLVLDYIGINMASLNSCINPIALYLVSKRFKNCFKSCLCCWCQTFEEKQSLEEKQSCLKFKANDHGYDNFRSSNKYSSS
pIC50: −log10 of the molar value. Square brackets hold non-standard residues; d marks the D form. Peptide text beside a SMILES is read from it. * marks the point of attachment. dDip = N[C@@H](C(=O)O)C(c1ccccc1)c1ccccc1; Dip = N[C@H](C(=O)O)C(c1ccccc1)c1ccccc1; Piv = CC(C)(C)C(=O)*
Collected pIC50 values appear next to each entry.
measurement-label: pIC50

[
  {
    "compound": "CC[C@H](C)[C@H](NC(=O)[C@H](CC(=O)O)NC(=O)[C@H](CC(C)C)NC(=O)[C@H](N)C(c1ccccc1)c1ccccc1)C(=O)N[C@H](C(=O)N[C@@H](Cc1c[nH]c2ccccc12)C(=O)O)[C@@H](C)CC (H-[dDip]LDIIW-OH)",
    "reading": 5.04
  },
  {
    "compound": "CC[C@H](C)[C@H](NC(=O)[C@H](CC(=O)O)NC(=O)[C@H](CC(C)C)NC(=O)[C@@H](NC(=O)C(C)(C)C)C(c1ccccc1)c1ccccc1)C(=O)N[C@H](C(=O)N[C@@H](Cc1c[nH]c2ccccc12)C(=O)O)[C@@H](C)CC (Piv-[Dip]LDIIW-OH)",
    "reading": 6.05
  }
]
